# Target Under Test: OR5B12 (Homo sapiens, UniProt Q96R08, C141R)
# Construct: Improved functional expression of modified OR-genes containing the truncated, optimized C-terminus; expressed in transfected cells; host or cells: HEK293T stably expressing human RTP1S(V227I) and RTP2(L220R)
# Sequence (Q96R08 with tags, fused parts or gaps C141R): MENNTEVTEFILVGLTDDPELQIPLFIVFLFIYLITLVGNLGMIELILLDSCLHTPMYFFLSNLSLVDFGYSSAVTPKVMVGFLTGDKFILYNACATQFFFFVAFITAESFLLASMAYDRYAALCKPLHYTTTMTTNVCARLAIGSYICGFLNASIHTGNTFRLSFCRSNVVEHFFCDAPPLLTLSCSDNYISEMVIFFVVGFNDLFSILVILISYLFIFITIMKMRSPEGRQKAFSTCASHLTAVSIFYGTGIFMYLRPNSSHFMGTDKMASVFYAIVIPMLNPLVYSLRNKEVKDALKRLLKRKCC
# Test Summary: CRE-luciferase assay, HEK293T cells expressing OR5B12 (wild-type / modified C-terminus)
# Format: cell-based
# Test Context: OR5B12 variant, 62.5 μM Hedione HC
Measure: % of the activation by the optimized sequence RNKEVKDALKRLLKRKCC

# annotated cases, reported % of the activation by the optimized sequence RNKEVKDALKRLLKRKCC shown
                                  substance  reported_result
0  SEQ ID NO: 146 (RNKEVKDALKRLLKRKCCR; source 1..19: note = C-terminal domain sequence)          248.52%
1  SEQ ID NO: 139 (RNKEVKDALKRLLKRKCCP; source 1..19: note = C-terminal domain sequence)           98.17%
2  SEQ ID NO: 117 (RNKEVKKAIKRLFKRKCC; source 1..18: note = C-terminal domain sequence)           282.5%

// input: 6 substances below; output: % of the activation by the optimized sequence RNKEVKDALKRLLKRKCC for each
1. SEQ ID NO: 134 (RNKEVKDALKRLLKRKCCC; source 1..19: note = C-terminal domain sequence)
2. SEQ ID NO: 221 (RNKEVKKAIKRLFKRKCCRRR; source 1..21: note = C-terminal domain sequence)
3. SEQ ID NO: 149 (RNKEVKDALKRLLKRKCRRR; source 1..20: note = C-terminal domain sequence)
4. SEQ ID NO: 115 (RNKEVKKAIKRLLKRKCC; source 1..18: note = C-terminal domain sequence)
5. SEQ ID NO: 144 (RNKEVKDALKRLLKRKCCD; source 1..19: note = C-terminal domain sequence)
6. SEQ ID NO: 121 (RNKEVKRAIKRLLKRKCR; source 1..18: note = C-terminal domain sequence)

Result string:
1: 121.37%; 2: 676.0%; 3: 231.7%; 4: 242.5%; 5: 56.54%; 6: 242.1%

// input: 3 substances below; output: % of the activation by the optimized sequence RNKEVKDALKRLLKRKCC for each
1. SEQ ID NO: 156 (RNKEVKDALKRLLKRKCCRRR; source 1..21: note = C-terminal domain sequence)
2. SEQ ID NO: 142 (RNKEVKDALKRLLKRKCCH; source 1..19: note = C-terminal domain sequence)
3. SEQ ID NO: 118 (RNKEVKRAIRKLLKRKCC; source 1..18: note = C-terminal domain sequence)

Result string:
1: 233.4%; 2: 129.19%; 3: 136.1%

// input: 2 substances below; output: % of the activation by the optimized sequence RNKEVKDALKRLLKRKCC for each
1. SEQ ID NO: 116 (RNKEVKRAIKRLFKRKCC; source 1..18: note = C-terminal domain sequence)
2. SEQ ID NO: 219 (RNKEVKDALKRLLKRKCCRRRR; source 1..22: note = C-terminal domain sequence)

Result string:
1: 303.9%; 2: 239.6%
